Tested on: COLO 205 colon
Assay: NCI tumour cell line growth inhibition, 48 h
# maps each entry to its TGI

Looking up Clc1ccc(Cc2nc3cc(Cl)c(Cl)cc3n2CC2CCCN3CCCCC23)cc1Cl (stereo unspecified) , I found its TGI recorded as 4.83 µM

Looking up `CCC(=O)Nc1cccc(NC(=O)c2c(Cl)c(Cl)c(Cl)c(Cl)c2-c2nc3ccccc3[nH]2)c1` , I found its TGI recorded as > 100 µM

----------
Tested on: HS 578T breast
Experiment: NCI tumour cell line growth inhibition, 48 h
quantity measured: TGI

> print(dat)
                                   compound   tested.system  value.observed
1  CSc1ccc(C2=NN(c3ccccc3)C(c3ccc(-c4cc(Cl)c(Cl)cc4Cl)o3)C2)cc1 (stereo unspecified)  HS 578T breast        > 100 µM

I looked up `O=C(O)C1(Nc2ccc(Cl)cc2)CCCC1` and its TGI for HS 578T breast was > 100 µM

I looked up c1ccc(COC2NCCN2Cc2ccccc2)cc1 (stereo unspecified) and its TGI for HS 578T breast was > 100 µM

I looked up `O=C1c2ccccc2C(=O)N1[C@@H](Cc1ccccc1)C(=O)n1cccc1CO` and its TGI for HS 578T breast was > 100 µM

I looked up `O=c1c(Nc2ccccc2)cn(CCOc2ccccc2)c(=O)n1CCOc1ccccc1` and its TGI for HS 578T breast was 76.8 µM

I looked up COc1cccc2c1C(=O)c1c(O)c3c(c(O)c1C2=O)C[C@@](O)(C(=O)CO)C[C@@H]3OC1CC(N(C)C)C(O)C(C)O1 (stereo partly specified) and its TGI for HS 578T breast was 0.0344 µM

I looked up `CCOC(=O)c1cc(C(=O)c2cc(OC)cc(OC)c2)n2nc(C)ccc12` and its TGI for HS 578T breast was > 100 µM

I looked up `CN(C)/C=N/S(=O)(=O)c1nn2c(C=O)c(-c3ccccc3)nc2s1` and its TGI for HS 578T breast was > 100 µM

I looked up `C=CCN1C(=O)CNC1=S` and its TGI for HS 578T breast was > 100 µM

I looked up CCOC(=O)CCC(C(=O)OCC)n1nc2ccc(Nc3c(C)[n+]([O-])c4ccc(Cl)cc4[n+]3[O-])cc2n1 (stereo unspecified) and its TGI for HS 578T breast was 58.3 µM

I looked up `C(=N\c1cc2cc(Sc3ccccc3)ccc2[nH]1)/c1ccccc1` and its TGI for HS 578T breast was > 12.5 µM
